# Experiment description: Selectivity index, ratio of IC50 for horse serum BChE to IC50 for Torpedo californica AChE
Field 'label' (enum: yes / no). Set to yes when Ratio IC50 is strictly under 2; else no.

Completed entries (count: 5):
C[C@@H](CC[C@H]1C(CO)=CC[C@H]2C(C)(C)CCC[C@]12C)CC(=O)OCCCCN1CCCC1
no
C[C@@H](CC[C@H]1C(CO)=CC[C@H]2C(C)(C)CCC[C@]12C)CC(=O)OCCCCCCN1CCCCC1
yes
C[C@@H](CC[C@H]1C(CO)=CC[C@H]2C(C)(C)CCC[C@]12C)CC(=O)OCCCCCN1CCCC1
no
C[C@@H](CC[C@H]1C(CO)=CC[C@H]2C(C)(C)CCC[C@]12C)CC(=O)OCCCCN1CCCCC1
no
C[C@@H](CC[C@H]1C(CO)=CC[C@H]2C(C)(C)CCC[C@]12C)CC(=O)OCCCCCN1CCCCC1
yes

query: Does the reported Ratio IC50 of C[C@@H](CC[C@H]1C(CO)=CC[C@H]2C(C)(C)CCC[C@]12C)CC(=O)OCCCN1CCCCC1 stay below 2?
result: no

query: And then C[C@@H](CC[C@H]1C(CO)=CC[C@H]2C(C)(C)CCC[C@]12C)CC(=O)OCCCCCCN1CCCC1 , what is it?
result: yes

query: Could you do the same for C[C@@H](CC[C@H]1C(CO)=CC[C@H]2C(C)(C)CCC[C@]12C)CC(=O)O , please?
result: no

query: Try this compound next: C[C@@H](CC[C@H]1C(CO)=CC[C@H]2C(C)(C)CCC[C@]12C)CC(=O)OCCCN1CCCC1
result: yes

query: And the next one, CCN(CC)CCCOC(=O)C[C@@H](C)CC[C@H]1C(CO)=CC[C@H]2C(C)(C)CCC[C@]12C ?
result: yes

query: Moving on to the next compound: CCN(CC)CCCCCCOC(=O)C[C@@H](C)CC[C@H]1C(CO)=CC[C@H]2C(C)(C)CCC[C@]12C
result: yes

query: Also C[C@@H](CC[C@H]1C(CO)=CC[C@H]2C(C)(C)CCC[C@]12C)CC(=O)OCCN1CCCC1 ?
result: yes

query: How about this compound: CCN(CC)CCOC(=O)C[C@@H](C)CC[C@H]1C(CO)=CC[C@H]2C(C)(C)CCC[C@]12C
result: yes

query: Next compound up: CCN(CC)CCCCOC(=O)C[C@@H](C)CC[C@H]1C(CO)=CC[C@H]2C(C)(C)CCC[C@]12C
result: yes
